For each of the compounds below, state its IC50.
# test-system: CETP (Homo sapiens)
# Construct: made in house; host or cells: CHO cells (serum-free conditioned medium)
# run-description: CETP activity in vitro: transfer of [3H]CE from HDL donor to LDL acceptor particles
# Format: biochemical
# reported-conditions: Table 7, compounds of formula T-7; read-out: IC50
# Experimental: The ability of compounds to inhibit CETP were assessed using an in vitro assay that measured the rate of transfer of radiolabeled cholesteryl ester ([^3H]CE) from HDL donor particles to LDL acceptor particles. Details of the assay are provided by Glenn et al. (“Quantification of Cholesteryl Ester Transfer Protein (CETP): A) CETP Activity and B) Immunochemical Assay of CETP Protein,” Meth. Enzymol., Glenn and Melton (Meth. Enzymol., 263, 339-351 (1996), which is incorporated herein by reference). […]
One number for each entry, in µM.

compound	observation-type	endpoint-result
COC(=O)c1c(C(F)F)nc(C(F)(F)F)c(SCc2ccccc2Br)c1CC(C)C [Compound 239]	IC50	45
COC(=O)c1c(C(F)F)nc(C(F)(F)F)c(SCc2cc(Cl)cc(Cl)c2)c1CC(C)C [Compound 243]	IC50	50
COC(=O)c1c(C(F)F)nc(C(F)(F)F)c(SCc2ccccc2[N+](=O)[O-])c1CC(C)C [Compound 223]	IC50	50
COC(=O)c1c(C(F)F)nc(C(F)(F)F)c(SCc2ccc(OCc3ccccc3)c(OCc3ccccc3)c2)c1CC(C)C [Compound 222]	IC50	15

State recorded IC50 for all listed compounds.
1. COC(=O)c1c(C(F)F)nc(C(F)(F)F)c(SCc2cccc([N+](=O)[O-])c2)c1CC(C)C [Compound 230]
2. COC(=O)c1c(C(F)F)nc(C(F)(F)F)c(SCc2ccc(OC(F)(F)F)cc2)c1CC(C)C [Compound 235]
3. COC(=O)c1c(C(F)F)nc(C(F)(F)F)c(SCc2ccccc2)c1CC(C)C [Compound 219]
4. COC(=O)c1c(C(F)F)nc(C(F)(F)F)c(SCc2ccc3ccccc3n2)c1CC(C)C [Compound 241]
5. COC(=O)c1c(C(F)F)nc(C(F)(F)F)c(SCc2ccc(C(F)(F)F)cc2C(F)(F)F)c1CC(C)C [Compound 234]
6. COC(=O)c1c(C(F)F)nc(C(F)(F)F)c(SCc2ccc3c(c2Cl)OCO3)c1CC(C)C [Compound 226]
7. COC(=O)c1c(C(F)F)nc(C(F)(F)F)c(SCc2ccc3c(c2)C(C)(C)CCC3(C)C)c1CC(C)C [Compound 245]
8. COC(=O)c1c(C(F)F)nc(C(F)(F)F)c(SCc2ccc(Cl)cc2)c1CC(C)C [Compound 220]

Reply text:
1. 50
2. 30
3. 25
4. 50
5. 20
6. 60
7. 30
8. 20

====

# test-system: CETP (Homo sapiens, UniProt P11597)
# Construct: made in house; host or cells: CHO cells (serum-free conditioned medium)
# Sequence (P11597 18-493): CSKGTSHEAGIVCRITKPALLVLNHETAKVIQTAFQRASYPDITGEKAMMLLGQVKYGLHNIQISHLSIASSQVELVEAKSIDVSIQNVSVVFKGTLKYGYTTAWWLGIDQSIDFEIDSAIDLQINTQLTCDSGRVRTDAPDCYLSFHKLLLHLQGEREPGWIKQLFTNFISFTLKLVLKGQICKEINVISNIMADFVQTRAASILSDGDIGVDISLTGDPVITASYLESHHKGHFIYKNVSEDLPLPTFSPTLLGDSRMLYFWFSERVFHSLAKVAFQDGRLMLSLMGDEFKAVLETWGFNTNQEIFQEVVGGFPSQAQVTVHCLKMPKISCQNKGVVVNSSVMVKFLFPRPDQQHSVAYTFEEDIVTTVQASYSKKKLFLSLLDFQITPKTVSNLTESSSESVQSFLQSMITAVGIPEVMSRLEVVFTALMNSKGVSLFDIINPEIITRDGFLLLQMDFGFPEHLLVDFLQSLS
# run-description: CETP activity in vitro: transfer of [3H]CE from HDL donor to LDL acceptor particles
# Type: biochemical
# reported-conditions: IC50(μm), 50% inhibition of [3H]CE transfer from HDL to LDL, 2 hours at 37° C.
observation-type: pIC50
Give bare numbers, as −log10 of the molar value.

Solved cases below.
compound	test-system	pIC50
COC(=O)c1c(C(F)F)nc(C(F)(F)F)c(N=C(CBr)OC)c1CC(C)C [Compound 16]	CETP (Homo sapiens, UniProt P11597)	4.52
CCOC(=O)c1c(C(F)F)nc(C(F)(F)F)c(C(=O)OCC)c1SC(C)(C)C [Compound 39]	CETP (Homo sapiens, UniProt P11597)	4.30
COC(=O)c1c(C(F)F)nc(C(F)(F)F)c(C(=O)OC)c1CCC(C)C [Compound 49]	CETP (Homo sapiens, UniProt P11597)	4.30
COC(=O)c1c(C(F)F)nc(C(F)(F)F)c(C(=O)Oc2cc(C)cc(C)c2)c1CC(C)C [Compound 174]	CETP (Homo sapiens, UniProt P11597)	4.22
COC(=O)c1c(C(F)F)nc(C(F)(F)F)c(C(=O)SC(C)C)c1C1CCC1 [Compound 14]	CETP (Homo sapiens, UniProt P11597)	4.52
CCCCCCCCCCCCCCCC(=O)Sc1c(C(F)(F)F)nc(C(F)F)c(C(=O)OC)c1CC(C)C [Compound 5]	CETP (Homo sapiens, UniProt P11597)	5.10
COC(=O)c1c(C(F)F)nc(C(F)(F)F)c(C(=O)Sc2ccc(C)cc2C)c1CC(C)C [Compound 158]	CETP (Homo sapiens, UniProt P11597)	4.00

Inquiry: Quote pIC50 with test system CETP (Homo sapiens, UniProt P11597) for COC(=O)Sc1c(C(F)(F)F)nc(C(F)F)c(C(=O)OC)c1CC(C)C [Compound 6]
Reply text: 5.10

Sourced from patent US6794396B2
